Data provenance: patent US11912693B2

target: human sphingosine-1-phosphate receptor 1 (S1P1) (Homo sapiens (Human)); test: β-Arrestin2 recruitment assay (PathHunter), S1P1 CHO-K1 cells; type: cell-based; details: CHO-K1; efficacy (SPAN) normalized to fingolimod; read-out: hS1P1 B-arrestin2 SPAN
Kindly state Emax for each of the entries shown.

GET /value?item= COc1ccccc1-c1noc(-c2ccc3c(c2)nnn3C(C)C)n1 &field=Emax returns > 75%

Lab book: Emax of CCCn1nnc2cc(-c3nc(-c4cccc(C(F)(F)F)c4)no3)ccc21 noted as < 75%

# Emax of Cc1ccncc1-c1nc(-c2ccc3c(c2)nnn3C(C)C)no1 = < 75%

Given item CNc1ccccc1-c1coc(-c2ccc3c(c2)nnn3C(C)C)n1 , the value recorded as its Emax is < 75%

Value of Emax reported for the molecule CCC1(CC)CC(=O)c2cc(-c3nc(-c4ccc(C(=O)NC)cc4)no3)ccc2O1 is > 75%

The measured Emax associated with CCC1(CC)CC(=O)c2cc(-c3nnc(-c4cccnc4)o3)ccc2O1 reads > 75%

The recorded Emax for CC(C)n1nnc2cc(-c3c[nH]c(-c4ccccc4)c3)ccc21 is < 75%

Form: molecule = CCc1ccccc1-c1nc(-c2ccc3c(c2)nnn3C(C)(C)CO)no1 ; Emax = > 75%

Reported Emax ( CC(C)n1nnc2cc(-c3nc(-c4nccn4C)no3)ccc21 ) = < 75%

According to the records, this molecule CCC1(CC)CC(=O)c2cc(-c3nc(-c4ccsc4)no3)ccc2N1 displays Emax of > 75%

molecule FC(F)(F)c1cc(-c2noc(-c3ccc4c(c3)nnn4C3CC3)n2)ccc1OCc1ccccc1 , Emax observed: < 75%

Per the record, Cc1ccccc1-c1noc(-c2ccc3c(cnn3C(C)C)c2)n1 has Emax of > 75%

Sure, the documented Emax for CC(C)n1nnc2cc(-c3nc(-c4ccc(Cl)s4)no3)ccc21 is < 75%

Entry under test: CC(C)CCn1nnc2cc(-c3nc(-c4ccccc4)no3)ccc21 . Its Emax was < 75%

GET /value?item= CC(C)Nc1ccc(-c2ccc(-c3ccc4c(c3)nnn4C(C)C)cc2)cc1C#N &field=Emax returns < 75%

Record Cc1ccccc1-c1cnc(-c2ccc3c(c2)nnn3C(C)C)s1 , field Emax: < 75%

Recorded result, Cc1ccsc1-c1noc(-c2ccc3c(c2)nnn3CC2CC2)n1 , Emax: < 75%

Just so you know, measured Emax for COc1ccc(-c2noc(-c3ccc4c(c3)nnn4C(C)C)n2)c2ccccc12 came out at < 75%

---

Please provide measured hS1P1 B-arrestin2 pEC50 for the entries that follow.
biological target: human sphingosine-1-phosphate receptor 1 (S1P1) (Homo sapiens (Human), UniProt P21453); assay: β-Arrestin2 recruitment assay (PathHunter), S1P1 CHO-K1 cells; format: cell-based; settings: β-arrestin2 recruitment, S1P1 CHO-K1 cells
Sequence (P21453 whole entry, looked up): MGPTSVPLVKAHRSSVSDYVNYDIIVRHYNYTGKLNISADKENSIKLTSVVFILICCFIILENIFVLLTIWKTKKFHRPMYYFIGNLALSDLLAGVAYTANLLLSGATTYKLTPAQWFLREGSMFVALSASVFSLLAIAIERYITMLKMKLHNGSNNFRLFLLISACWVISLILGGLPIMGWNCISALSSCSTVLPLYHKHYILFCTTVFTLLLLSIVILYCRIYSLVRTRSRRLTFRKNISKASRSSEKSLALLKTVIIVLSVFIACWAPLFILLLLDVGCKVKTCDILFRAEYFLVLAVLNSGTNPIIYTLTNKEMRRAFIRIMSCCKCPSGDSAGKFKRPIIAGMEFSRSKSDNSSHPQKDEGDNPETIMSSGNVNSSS
Sequence (P32121 whole entry partner, looked up): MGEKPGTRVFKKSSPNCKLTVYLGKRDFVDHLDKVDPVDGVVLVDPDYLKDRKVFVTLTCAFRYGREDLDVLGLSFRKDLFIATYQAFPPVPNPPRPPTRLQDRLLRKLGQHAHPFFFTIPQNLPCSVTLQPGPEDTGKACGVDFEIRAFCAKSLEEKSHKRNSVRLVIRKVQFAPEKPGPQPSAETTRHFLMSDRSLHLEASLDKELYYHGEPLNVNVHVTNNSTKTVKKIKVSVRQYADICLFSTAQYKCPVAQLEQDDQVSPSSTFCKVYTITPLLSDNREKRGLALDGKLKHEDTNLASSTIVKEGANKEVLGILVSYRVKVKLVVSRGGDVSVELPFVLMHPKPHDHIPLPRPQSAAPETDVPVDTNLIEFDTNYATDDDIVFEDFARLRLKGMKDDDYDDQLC

Quick note, hS1P1 B-arrestin2 pEC50 for CCC1(CC)CC(=O)c2cc(-c3nc(-c4ccccc4C)no3)ccc2O1 landed at >5

Per the records, this molecule ( COc1ccc(-c2noc(-c3ccc4c(c3)nnn4CC(C)(C)O)n2)c(C)c1 [Compound 647] ) has hS1P1 B-arrestin2 pEC50 equal to >5

Form field hS1P1 B-arrestin2 pEC50, entry CC(C)n1nnc2cc(-c3nc4c(ccc5sccc54)o3)ccc21 : <5

Memo: COc1ccccc1-c1nnc(-c2ccc3c(c2)nnn3C(C)C)s1 , reported hS1P1 B-arrestin2 pEC50: >5

hS1P1 B-arrestin2 pEC50 reading for CCC1(CC)CC(=O)c2cc(-c3nc(-c4cccc(C)c4)no3)ccc2O1 : >5

Consider CC(C)n1nnc2cc(-c3nc4c(Cl)cccc4o3)ccc21 . Its measured hS1P1 B-arrestin2 pEC50 is <5

// hS1P1 B-arrestin2 pEC50 value for COc1cc(-c2nc(-c3ccc4c(c3)nnn4C(C)C)no2)ccn1 : <5

So, CCC1(CC)CC(=O)c2cc(-c3nsc(-c4ccc5c(c4)nnn5C(C)C)n3)ccc2O1 ? Its hS1P1 B-arrestin2 pEC50 was <5

Sure, the documented hS1P1 B-arrestin2 pEC50 for CC(C)n1ncc2cc(-c3nc(-c4ccccc4OC(F)(F)F)no3)ccc21 is >5
